Answer each item with its documented growth.
tested on: 786-0 renal; assay: NCI-60 one-dose screen, 48 h (100 = growth as untreated, 0 = no growth, -100 = all killed); conditions: 10 µM unless noted
The panel holds about 83,000 compounds, 20% with a hit somewhere; the sample as a whole holds those more often.
Give bare numbers, in %.

compound=OCCS recorded_number=94.2

# batch: return growth for each of the 2 compounds below
1. O=P(O)(O)OC1C(OP(=O)(O)O)C(OP(=O)(O)O)C(OP(=O)(O)O)C(OP(=O)(O)O)C1OP(=O)(O)O.[Cu+2] (stereo not drawn)
2. CCC(C)(O)CCC(C)(O)CC (stereo not drawn)

1. 114
2. 99.3

###

system: CCRF-CEM leukemia; assay: NCI-60 one-dose screen, 48 h; conditions: 10 µM unless noted
About 83,000 compounds went through this panel and 20% of them were active in at least one assay; those are over-represented in the sample as a whole. Activity calls are given as the source filed them. How the source made its calls: active means growth percent below 10; inactive means the rest.
Outcome (select one): active, inactive

Reference set, count: 3
molecule="Nc1ccccc1SC1CC(=O)N(c2ccc(I)cc2)C1=O (stereo unspecified)" assigned_label=inactive
molecule=CCOC(=O)c1ccncc1 assigned_label=inactive
molecule="CN1C2C=CC(=O)C1C1C(=O)N(c3ccccc3)C(=O)C12 (stereo unspecified)" assigned_label=inactive

Please share the test call associated with CC1=CC(=O)C=CC1=Nc1ccc(N(C)C)cc1 . active

What outcome does the record of this test show for NNC(=O)Nc1ccccc1 ? inactive

# outcome recorded in this test, key = C/C(CC(C)C)=N/NC(N)=S inactive

What did this assay record as the result for Nc1nc(-c2ccccn2)cc(-c2cc(-c3ccccn3)nc(N)n2)n1 ? inactive

For Cc1cc(-c2ccc(N=Nc3c(C)nn(-c4ccc(S(=O)(=O)O)cc4)c3O)c(C)c2)ccc1N=Nc1ccc(O)c(C(=O)O)c1 , which call appears in the assay record? inactive

Given O=c1[nH]c(=O)n(C2OC(CO)C(O)C2O)cc1I (stereo unspecified) , state the outcome it received in this test. inactive

State the result this test recorded for CC1CC(O)CC(C)(C)C1.CC1CC(O)CC(C)(C)C1.CC1CC(O)CC(C)(C)C1.CC1CC(O)CC(C)(C)C1.[Ti] (stereo unspecified) . inactive

Test call for this molecule, please: CN(C)c1ccc(C(=N)c2ccc(N(C)C)cc2)cc1 inactive

How was COc1cc(Cl)ccc1C classified in this test? inactive

Field: outcome | Entry: CC1CCC(=O)N1c1ccc(N)cc1 (stereo unspecified) inactive

Entry C/C=C/C(=O)OCCCCCCCCCCCC : call = ? inactive

Identify the outcome logged in this assay for the molecule shown: O=C1C=CC(=O)N1Cc1ccco1 inactive

Which result was noted for this molecule in the test: CCOC(=O)c1ccc(N2C(=O)C(Cl)(c3ccccc3)C2c2ccco2)cc1 (stereo unspecified) inactive

###

Hi there, I'd appreciate the recorded growth for every entry that follows.
Tested on: EKVX NSCLC
Assay: NCI-60 one-dose screen, 48 h (100 = growth as untreated, 0 = no growth, -100 = all killed)
Conditions: 10 µM unless noted
Protocol: Growth inhibition of the EKVX human Non-Small Cell Lung tumor cell line is measured as a screen for anti-cancer activity. Cells are grown in 96 well plates and exposed to the test compound for 48 hours. Compounds are tested at a single concentration, which is 10^-5 M for most compounds. The reported endpoint is percent growth (GI% or GIPRCNT), where numbers from 0 - 100% represent growth inhibition, and numbers from -100% - 0 represent cell death. […]
About 83,000 compounds went through this panel and 20% of them were active in at least one assay; those are over-represented in the sample as a whole. Active and inactive are the calls of the source. The calls were made as follows: active = growth percent below 10; inactive = the rest.

compound=Cc1nc(Nc2ccc(Cl)cc2)c2cnn(-c3ccccc3)c2n1 result="91.3% (inactive)"

Hi, could you look up growth for each item in my list?
1. Nc1ccc2ccc(NS(=O)(=O)N3CCCCC3)cc2c1
2. O=C1C(=O)c2ccccc2C(O)=C1CC=C(Cl)Cl
3. O=c1ccn2c(n1)OC1CC2OC1COC(c1ccccc1)(c1ccccc1)c1ccccc1 (centres undefined)

1: 61.7% (inactive); 2: 75.8% (inactive); 3: 96.3% [100 µM] (inactive)
